Assay System: recombinant Motavizumab human IgE (rMota-hIgE) (human) (UniProt P01854)
Sequence (P01854 other isoform, or with tags, fused parts or gaps limits assumed, form in doubt): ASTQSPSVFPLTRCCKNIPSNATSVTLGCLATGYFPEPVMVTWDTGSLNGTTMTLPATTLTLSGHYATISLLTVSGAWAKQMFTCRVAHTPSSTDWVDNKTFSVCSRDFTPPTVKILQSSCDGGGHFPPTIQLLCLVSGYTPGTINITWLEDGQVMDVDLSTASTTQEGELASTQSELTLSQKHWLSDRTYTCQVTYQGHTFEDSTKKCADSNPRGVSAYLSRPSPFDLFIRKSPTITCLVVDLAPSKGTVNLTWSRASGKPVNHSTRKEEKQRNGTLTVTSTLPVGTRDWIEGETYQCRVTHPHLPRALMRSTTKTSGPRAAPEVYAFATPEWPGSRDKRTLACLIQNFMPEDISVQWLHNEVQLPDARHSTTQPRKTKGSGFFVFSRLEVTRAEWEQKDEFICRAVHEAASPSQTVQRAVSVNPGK
Method: hIgE binding ELISA
Measured Metric: Ratio OD450 pH 7.4/pH 6
# print the numeric value only

Binder	Ratio OD450 pH 7.4/pH 6
CL-2C mAb 17 (antibody, V domains shown) VH: QVQLVQSGAEVMKPGSSVKVSCKASGYTFSWYHLEWVRQAPGHGLEWMGEIDPGTFTTNYNEKFKARVTFTADTSTSTAYMELSSLRSEDTAVYYCARFSHFSGSNHDYFDYWGQGTLVTVSS VL: EIVMTQSPATLSVSPGERATLSCRASQSIGTNIHWYQQKPGQAPRLLIYHASESISGIPARFSGSGSGTEFTLTISSLQSEDFAVYYCQQSDSHPTTFGGGTKVEIK	1.03

Please look at the following binder next.
Prompt: Quick one: Ratio OD450 pH 7.4/pH 6 of CL-2C mAb 13 (antibody, V domains shown) VH: QVQLVQSGAEVMKPGSSVKVSCKASGYTFSWYHLEWVRQAPGHGLEWMGEIDPGTFTTNYNEKFKARVTFTADTSTSTAYMELSSLRSEDTAVYYCARFSHFSGSHYDYFDYWGQGTLVTVSS VL: EIVMTQSPATLSVSPGERATLSCRASQSIGTNIHWYQQKPGQAPRLLIYHASESISGIPARFSGSGSGTEFTLTISSLQSEDFAVYYCQQSWSHPTTFGGGTKVEIK ?
Completion: 1.28
